Numbers sourced from patent US20250019451A1.

- tested_target: human CCR8 (UniProt P51685 1-355)
- measurement_description: FACS cell binding
readout_label: pEC50
One number for each entry, as −log10 of the molar value.

Entry HFB11-5 (antibody, V domains shown) VH: EVQLVESGGGLVQPRGSLKLSCTASGFSFNAYAMNWVRQAPGKGLEWVARIRTKSNNYATYYADSVKDRFTISRDDSESMLYLQMKNLKTEDTAMYYCVRGGYGNGGYYFDYWGQGTTLTVSS VL: DIVMTQAAPSVTVTPGESASISCRSSKSLLHRNGNSYLYWFLQRPGQSPQLLIYRISNLASGVPDRFSGSGSGTAFTLRISRVEAEDVGVYYCMQHLEYPFTFGSGTKLEIK , pEC50 reported as 9.31
